- run.description: Oral absorption (p.o. pharmacokinetics, Table 25)
- Assay type: in vivo, Rats
- particulars: rat, plasma, 10 mg/kg, 10 MPK, 0-8 hr p.o.
The following compounds are shown together with reported Cmax values.
Quick reminder: number only, in ng/mL, skip the unit.

Worked examples, 3 compounds total:
INSERT INTO results (compound, measurement_unit, observed_measurement) VALUES
  ('Cc1ccc(N2CCN(C[C@H](O)COc3ccc4[nH]c(=O)oc4c3)CC2)cc1 [drawing 813]', 'ng/mL', 57.8),
  ('NC(=O)Nc1ccc(OC[C@@H](O)CN2CCN(c3ccc(Cl)cc3)CC2)cc1 [drawing 810]', 'ng/mL', 1560),
  ('O=c1[nH]c2ccc(OC[C@@H](O)CN3CCN(c4ccc(Cl)cc4)CC3)cc2o1 [drawing 814]', 'ng/mL', 30.6);

-- ask What value of Cmax has been recorded for this entry: Oc1ccc(OC[C@@H](O)CN2CCN(c3ccc(Cl)cc3)CC2)cc1 [drawing 815]
-- reply 10.2
